Tested on: HAL-01
protocol: selective drug sensitivity score (sDSS, relative to normal bone marrow) (sDSS (score)); higher = more potent and effective on the cell line relative to normal bone marrow cells;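 note: ALL cell lines in 384-well plates, five doses spanning 10,000-fold, each plate scaled between vehicle and 100 µmol/L benzalkonium chloride controls, sDSS an adapted area-under-curve metric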
condition.notes: 72 h
Values of selective drug sensitivity score greater than or equal to 0.3 map to y; values below map to n.

Qu. Decide: is the reported value of selective drug sensitivity score for Cc1cc(OCc2nnc(SC3CCCC3)n2-c2cccnc2)ccc1-c1ccc(S(C)(=O)=O)cc1 [NMS-873] (top concentration 10000 nM) equal to or greater than 0.3?
Ans. y

Qu. Decide: is the reported value of selective drug sensitivity score for CCOCc1nc2c(N)nc3ccccc3c2n1CC(C)(C)O [Resiquimod] (top concentration 10000 nM) equal to or greater than 0.3?
Ans. n

Qu. Decide: is the reported value of selective drug sensitivity score for CC(C)(O)CC(=O)NCCn1ccc2ncnc(Nc3ccc(Oc4cccc(C(F)(F)F)c4)c(Cl)c3)c21 [TAK-285] (top concentration 2500 nM) equal to or greater than 0.3?
Ans. y

Qu. Decide: is the reported value of selective drug sensitivity score for CCCCc1nc2cc(/C=C/C(=O)NO)ccc2n1CCN(CC)CC [Pracinostat] (top concentration 10000 nM) equal to or greater than 0.3?
Ans. y

Qu. Decide: is the reported value of selective drug sensitivity score for CS(=O)(=O)c1ccc(C(=O)Nc2ccc(Cl)c(-c3ccccn3)c2)c(Cl)c1 [Vismodegib] (top concentration 10000 nM) equal to or greater than 0.3?
Ans. n

Qu. Decide: is the reported value of selective drug sensitivity score for Oc1ccc2c(c1)CC[C@H](c1ccccc1)[C@@H]2c1ccc(OCCN2CCCC2)cc1 [Lasofoxifene] (top concentration 1000 nM) equal to or greater than 0.3?
Ans. n

====

Would you kindly list selective drug sensitivity score for each of these molecules?
Tested on: DND-41
protocol: selective drug sensitivity score (sDSS, relative to normal bone marrow) (sDSS (score)); higher = more potent and effective on the cell line relative to normal bone marrow cells
condition.notes: 72 h
I'd appreciate a reply containing only the number, no unit.

Record COCCOc1cnc2ccn([C@H](C)c3nnc4c(F)cc(-c5cnn(C)c5)cn34)c(=O)c2c1 [AMG-337] (top concentration 10000 nM) . Reported selective drug sensitivity score: -0.06

Record CCN1C(=O)CNc2ncc(-c3ccc(-c4nc[nH]n4)nc3C)nc21 [CC-115] (top concentration 10000 nM) . Reported selective drug sensitivity score: 6.74

Record Cc1cc2c(C(C)C)c(O)c(O)c(C=O)c2c(O)c1-c1c(C)cc2c(C(C)C)c(O)c(O)c(C=O)c2c1O [AT-101] (top concentration 100000 nM) . Reported selective drug sensitivity score: 4.68

Record CNC(=O)c1ccc2cc([C@@]3(O)CCn4cncc43)ccc2c1 [Orteronel] (top concentration 10000 nM) . Reported selective drug sensitivity score: 0

Record CN(CC(=O)N(Cc1ccc(C2CCCCC2)cc1)c1ccc(C(=O)O)cc1)S(=O)(=O)c1c(F)c(F)c(F)c(F)c1F [SH-4-54] (top concentration 25000 nM) . Reported selective drug sensitivity score: -2.74

Record CN1CCc2c(c3ccccc3n2Cc2ccc(C(=O)NO)cc2)C1 [Tubastatin_A] (top concentration 10000 nM) . Reported selective drug sensitivity score: 2.66

====

Test system: NALM-16
protocol: selective drug sensitivity score (sDSS, relative to normal bone marrow) (sDSS (score)); higher = more potent and effective on the cell line relative to normal bone marrow cells
condition.notes: 72 h
observable: selective drug sensitivity score
I'd appreciate a reply containing only the number, no unit.

Record CCN1CCN(Cc2ccc(Nc3ncc(F)c(-c4cc(F)c5nc(C)n(C(C)C)c5c4)n3)nc2)CC1 [Abemaciclib] (top concentration 2500 nM) . Reported selective drug sensitivity score: -6.46

Record N#Cc1ccc(COC[C@H]2O[C@@H](n3c(NCc4ccc(Cl)c(Cl)c4)nc4c(N)ncnc43)[C@H](O)[C@@H]2O)cc1 (top concentration 10000 nM) . Reported selective drug sensitivity score: -0.88

Record Nc1cccc2c1CN(C1CCC(=O)NC1=O)C2=O (stereo not drawn) [Lenalidomide] (top concentration 100000 nM) . Reported selective drug sensitivity score: -0.38

====

Test system: SUP-B15
protocol: selective drug sensitivity score (sDSS, relative to normal bone marrow) (sDSS (score)); higher = more potent and effective on the cell line relative to normal bone marrow cells
condition.notes: 72 h
Would you kindly list selective drug sensitivity score for each of these compounds?
I'd appreciate a reply containing only the number, no unit.

Record CC[C@H](Nc1ncnc2[nH]cnc12)c1nc2cccc(F)c2c(=O)n1-c1ccccc1 [Idelalisib] (top concentration 10000 nM) . Reported selective drug sensitivity score: -2.16

Record COc1cc(Br)c(Nc2nc(-c3c(C)nc4ncccn34)cs2)c(Br)c1 [PTC-209] (top concentration 10000 nM) . Reported selective drug sensitivity score: -0.18

Record Cn1cc(C[C@@H](N)C(=O)O)c2ccccc21 [1-methyl-D-tryptophan] (top concentration 5000 nM) . Reported selective drug sensitivity score: -0.62

Record Cc1ccc(F)c(NC(=O)Nc2ccc(-c3cccc4[nH]nc(N)c34)cc2)c1 [Linifanib] (top concentration 1000 nM) . Reported selective drug sensitivity score: -1.12

====

Tested on: TMD5
protocol: selective drug sensitivity score (sDSS, relative to normal bone marrow) (sDSS (score)); higher = more potent and effective on the cell line relative to normal bone marrow cells
condition.notes: 72 h
Values of selective drug sensitivity score greater than or equal to -1 map to rule met; values below map to rule not met.

Qu. Decide: is the reported value of selective drug sensitivity score for Cc1ccc(F)c(NC(=O)Nc2ccc(-c3cccc4[nH]nc(N)c34)cc2)c1 [Linifanib] (top concentration 1000 nM) equal to or greater than -1?
Ans. rule not met

Qu. Decide: is the reported value of selective drug sensitivity score for CC1(C)NC(=O)N(c2ccc([N+](=O)[O-])c(C(F)(F)F)c2)C1=O [Nilutamide] (top concentration 10000 nM) equal to or greater than -1?
Ans. rule met

Qu. Decide: is the reported value of selective drug sensitivity score for CNC(=O)c1ccc(-c2cnc3ncc(Cc4ccc5ncccc5c4)n3n2)cc1F [Capmatinib] (top concentration 1000 nM) equal to or greater than -1?
Ans. rule met

Qu. Decide: is the reported value of selective drug sensitivity score for CO[C@H]1C[C@@H]2CC[C@@H](C)[C@@](O)(O2)C(=O)C(=O)N2CCCC[C@H]2C(=O)O[C@H]([C@H](C)C[C@@H]2CC[C@@H](OP(C)(C)=O)[C@H](OC)C2)CC(=O)[C@H](C)/C=C(\C)[C@@H](O)[C@@H](OC)C(=O)[C@H](C)C[C@H](C)/C=C/C=C/C=C/1C [Ridaforolimus] (top concentration 100 nM) equal to or greater than -1?
Ans. rule not met

Qu. Decide: is the reported value of selective drug sensitivity score for Nc1nc(F)nc2c1ncn2[C@@H]1O[C@H](CO)[C@@H](O)[C@@H]1O [Fludarabine] (top concentration 10000 nM) equal to or greater than -1?
Ans. rule not met

Qu. Decide: is the reported value of selective drug sensitivity score for Cc1cnc(NC(=O)Nc2cc(Br)c(C)cc2OC[C@@H]2CNCCO2)cn1 [Rabusertib] (top concentration 1000 nM) equal to or greater than -1?
Ans. rule met

Qu. Decide: is the reported value of selective drug sensitivity score for COC(=O)c1ccc([C@H]2c3[nH]c4ccccc4c3C[C@H](C(=O)OC)N2C(=O)CCl)cc1 [RSL3] (top concentration 10000 nM) equal to or greater than -1?
Ans. rule met

Qu. Decide: is the reported value of selective drug sensitivity score for Nc1ncn([C@H]2C[C@H](O)[C@@H](CO)O2)c(=O)n1 [Decitabine] (top concentration 10000 nM) equal to or greater than -1?
Ans. rule not met

Qu. Decide: is the reported value of selective drug sensitivity score for CC[C@@H](C(=O)[C@@H](C)[C@@H](O)[C@H](C)[C@@H]1O[C@@H]([C@@H](CC)C(=O)O)CC[C@@H]1C)[C@H]1O[C@]2(C=C[C@@H](O)[C@]3(CC[C@@](C)([C@H]4CC[C@](O)(CC)[C@H](C)O4)O3)O2)[C@H](C)C[C@@H]1C [Salinomycin] (top concentration 50000 nM) equal to or greater than -1?
Ans. rule met

Qu. Decide: is the reported value of selective drug sensitivity score for CC1=C2C[C@H]3[C@@H](CC[C@@H]4C[C@H](NS(C)(=O)=O)CC[C@@]43C)[C@@H]2CC[C@@]2(C1)O[C@@H]1C[C@H](C)CN[C@H]1[C@H]2C [Saridegib] (top concentration 10000 nM) equal to or greater than -1?
Ans. rule met

====

Tested on: REH
protocol: selective drug sensitivity score (sDSS, relative to normal bone marrow) (sDSS (score)); higher = more potent and effective on the cell line relative to normal bone marrow cells
condition.notes: 72 h
Would you kindly list selective drug sensitivity score for each of these compounds?
I'd appreciate a reply containing only the number, no unit.

Record Sc1ncnc2nc[nH]c12 [Mercaptopurine] (top concentration 10000 nM) . Reported selective drug sensitivity score: 17

Record Cc1noc2c1-c1ccccc1C(c1ccc(Cl)cc1)=N[C@H]2CC(N)=O [CPI-0610] (top concentration 10000 nM) . Reported selective drug sensitivity score: -1.2

Record CC(C)NC(=O)COc1cccc(-c2nc(Nc3ccc4[nH]ncc4c3)c3ccccc3n2)c1 [KD025] (top concentration 5000 nM) . Reported selective drug sensitivity score: -5.36

Record Cn1cncc1[C@@](N)(c1ccc(Cl)cc1)c1ccc2c(c1)c(-c1cccc(Cl)c1)cc(=O)n2C [Tipifarnib] (top concentration 10000 nM) . Reported selective drug sensitivity score: 14
